# experiment: chemical genetic growth profiling, strain panel (AID 1159580);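 also: tested at 20 µM; growth read once vehicle control cultures reached saturation at 30 °C; 1 = growth at the plate median or of vehicle wells; lower values mean less growth of the strain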
# particulars: S. cerevisiae deletion strains, growth OD, locus YML070W, strain DAK1, hits give low values
About 2,000 (36%) of roughly 5,500 compounds were called active. About 18% were inconclusive and are not listed. The list shows a part of the results.
readout: normalized growth
Answer field: number only, no words.

C/C(=N/Nc1ccccc1)c1cc(Cl)cc(Cl)c1O    0.81
CS(=O)(=O)/C(C#N)=C/c1ccccc1OCc1c(Cl)cccc1Cl    0.923
Cc1nn(Cc2nnc(SCc3cccc(C(F)(F)F)c3)o2)c(C)c1Br    0.916

Given the entry Oc1ccc(N=Nc2ccccn2)c(O)c1 , report its measured normalized growth. 0.103

Would you kindly repeat that for COc1cc(CC/C(C)=N\O)ccc1OCc1ccc(Cl)c(Cl)c1 ? 0.82

// same read-out, input: COc1cc(CC/C(C)=N/O)ccc1OCc1ccc(Cl)cc1Cl 0.936
